Values from ChEMBL document CHEMBL1139486

- targetDesc: Tubulin
- testDetails: Inhibition of tubulin polymerization
pIC50: −log10 of the molar value.
quantity: pIC50

P: COc1ccc(CCN2C=CC=C3C2=Nc2ccccc2N(C)S3(=O)=O)cc1
Q: COc1ccc(CCN2C=CC=C3C2=Nc2ccccc2S(=O)(=O)N3C)cc1
IN: # compare pIC50 for P vs Q ; return the one with the smaller value Use the label to indicate which entry you chose.
OUT: Q

###

- Tested on: L1210
- testDetails: Antiproliferative activity against mouse L1210 cells after 48 hrs relative control
- Assay type: functional, cell-based
- measurementConditions: L1210, 48 h
quantity: IC50

[[record]]
linenotation = "COc1ccc(CN2C=CC=C3C2=Nc2ccccc2N(Cc2ccc(OC)cc2)S3(=O)=O)cc1"
targetdesc = "L1210"
valuemeasured = "> 100 µM"

[[record]]
linenotation = "COc1ccc(CCN2c3ccccc3N(Cc3ccc(OC)cc3)S(=O)(=O)c3cccnc32)cc1"
targetdesc = "L1210"
valuemeasured = "> 100 µM"

[[record]]
linenotation = "COc1ccc(CCN2c3ccc(Cl)cc3N(C)S(=O)(=O)c3cccnc32)cc1"
targetdesc = "L1210"
valuemeasured = "> 10 µM"

[[record]]
linenotation = "COc1ccc(CN2C=CC=C3C2=Nc2cc(C(F)(F)F)ccc2S(=O)(=O)N3C)cc1"
targetdesc = "L1210"
valuemeasured = "> 10 µM"

[[record]]
linenotation = "COc1ccc(CN2C=CC=C3C2=Nc2ccc(Cl)cc2S(=O)(=O)N3C)cc1"
targetdesc = "L1210"
valuemeasured = "> 10 µM"

[[record]]
linenotation = "CN(C)CCOc1ccc(CCN2C=CC=C3C2=Nc2ccccc2S(=O)(=O)N3C)cc1"
targetdesc = "L1210"
valuemeasured = "> 10 µM"

[[record]]
linenotation = "COc1ccc(CN2c3cc(C(F)(F)F)ccc3S(=O)(=O)N(C)c3cccnc32)cc1"
targetdesc = "L1210"
valuemeasured = "> 10 µM"

[[record]]
linenotation = "COc1ccc(CN2c3ccccc3S(=O)(=O)N(C)c3cccnc32)cc1"
targetdesc = "L1210"
valuemeasured = "> 10 µM"

[[record]]
linenotation = "COc1ccc(CCCN2C=CC=C3C2=Nc2ccccc2S(=O)(=O)N3C)cc1"
targetdesc = "L1210"
valuemeasured = "> 10 µM"

[[record]]
linenotation = "COc1ccc(CN2c3cc(C)ccc3N(C)S(=O)(=O)c3cccnc32)cc1"
targetdesc = "L1210"
valuemeasured = "6.9 µM"


Summary for this molecule, `CCN(CC)CCN1c2ccccc2N=C2C(=CC=CN2CCc2ccc(OC)cc2)S1(=O)=O` : IC50 is > 10 µM

Summary for this molecule, `COc1ccc(CCN2C=CC=C3C2=Nc2ccccc2S(=O)(=O)N3C)cc1` : IC50 is 0.3 µM

Summary for this molecule, `COc1cc(CN2C=CC=C3C2=Nc2ccccc2S(=O)(=O)N3C)cc(OC)c1OC` : IC50 is > 10 µM

Summary for this molecule, `COc1ccc(CN2C=CC=C3C2=Nc2cc(C)ccc2N(C)S3(=O)=O)cc1` : IC50 is 9.2 µM

###

- Tested on: L1210
- testDetails: Antiproliferative activity against mouse L1210 cells after 48 hrs relative control
- Type: functional, cell-based
- measurementConditions: L1210, 48 h
pIC50: −log10 of the molar value.
quantity: pIC50

[[record]]
linenotation = "COc1ccc(CCCN2C=CC=C3C2=Nc2ccc(Cl)cc2S(=O)(=O)N3C)cc1"
valuemeasured = "< 5.00"


Summary for this compound, `COc1ccc(CCCN2C=CC=C3C2=Nc2cc(OC)ccc2S(=O)(=O)N3C)cc1` : pIC50 is < 4.30

Summary for this compound, `COc1ccc(CCN2C=CC=C3C2=Nc2cc(C(F)(F)F)ccc2S(=O)(=O)N3C)cc1` : pIC50 is < 5.00

Summary for this compound, `CN1C2=CC=CN(CCc3ccc(OCc4ccccc4)cc3)C2=Nc2ccccc2S1(=O)=O` : pIC50 is < 5.00

Summary for this compound, `COc1ccc(CN2c3cc(C)ccc3S(=O)(=O)N(C)c3cccnc32)cc1` : pIC50 is < 5.00

Summary for this compound, `COc1ccc(CCN2c3cc(Cl)ccc3S(=O)(=O)N(C)c3cccnc32)cc1` : pIC50 is < 5.00

Summary for this compound, `COc1ccc(CN2C=CC=C3C2=Nc2cc(OC)ccc2N(C)S3(=O)=O)cc1` : pIC50 is < 5.00

Summary for this compound, `COc1cc(CCN2C=CC=C3C2=Nc2ccccc2S(=O)(=O)N3C)cc(OC)c1OC` : pIC50 is < 5.00

Summary for this compound, `COc1cc(CCN2c3ccccc3S(=O)(=O)N(C)c3cccnc32)cc(OC)c1OC` : pIC50 is < 5.00

Summary for this compound, `COc1cc(CN2c3ccccc3S(=O)(=O)N(C)c3cccnc32)cc(OC)c1OC` : pIC50 is < 5.00

Summary for this compound, `COc1ccc(CCN2c3cc(Cl)ccc3N(C)S(=O)(=O)c3cccnc32)cc1` : pIC50 is < 4.00

Summary for this compound, `COc1ccc(CCCN2c3ccccc3N(C)S(=O)(=O)c3cccnc32)cc1` : pIC50 is < 5.00

###

- Test system: L1210
- testDetails: Antiproliferative activity against mouse L1210 cells after 48 hrs relative control
- Type: functional, cell-based
- measurementConditions: L1210, 48 h
quantity: IC50

Sample records with IC50:
[[record]]
linenotation = "COc1ccc(CN2c3ccccc3N(Cc3ccc(OC)cc3)S(=O)(=O)c3cccnc32)cc1"
targetdesc = "L1210"
valuemeasured = "> 100 µM"

[[record]]
linenotation = "COc1ccc(CN2C=CC=C3C2=Nc2cc(OC)ccc2S(=O)(=O)N3C)cc1"
targetdesc = "L1210"
valuemeasured = "> 50 µM"


IC50 value, target or system L1210, for `COc1ccc(CCN2C=CC=C3C2=Nc2cc(C)ccc2S(=O)(=O)N3C)cc1` : 1.4 µM
